So I've got IC50 readings for Poly [ADP-ribose] polymerase 1 (Homo sapiens, UniProt P09874), take a look.
ENDPOINT LABEL: IC50 (nM)

Below are worked cases with known answers.
INSERT INTO assay_data (compound, measurement_target, unit_name, reading) VALUES
  ('CC(C)N1CCCC(c2nc3c(C(N)=O)cncc3[nH]2)C1 (centres undefined)', 'Poly [ADP-ribose] polymerase 1 (Homo sapiens, UniProt P09874)', 'nM', 651),
  ('CCCN1CCC(c2nc3c(C(N)=O)cncc3[nH]2)CC1', 'Poly [ADP-ribose] polymerase 1 (Homo sapiens, UniProt P09874)', 'nM', 528);

I = NC(=O)c1cncc2[nH]c(C3CCCNC3)nc12 (centres undefined)
II = CN1CCC(c2nc3c(C(N)=O)cncc3[nH]2)CC1
input: Select one: I or II . Criterion: greater recorded IC50. // output: label of the selected item
output: II
